Subject Of Test: TRβ-GAL4 binding domain chimeric receptors (Homo sapiens (Human), UniProt P10828)
Sequence (P10828 217-461, change not shown): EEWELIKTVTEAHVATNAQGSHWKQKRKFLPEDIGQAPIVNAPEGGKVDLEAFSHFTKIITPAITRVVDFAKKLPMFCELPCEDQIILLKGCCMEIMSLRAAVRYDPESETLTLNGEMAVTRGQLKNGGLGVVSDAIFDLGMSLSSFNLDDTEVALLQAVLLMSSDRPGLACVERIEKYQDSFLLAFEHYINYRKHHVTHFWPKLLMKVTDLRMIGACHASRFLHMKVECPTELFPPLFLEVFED
Assay Comment: Thyroid hormone receptor cell assay (GAL4 luciferase reporter in HEK293-LUC cells)
Readout: EC50 (µM)

a. CC(c1cc(Oc2c(Cl)cc(-n3nc(C#N)c(=O)[nH]c3=O)cc2C(F)(F)F)n[nH]c1=O)C1CCCCC1 (single isomer, unassigned) [Compound 98]
b. N#Cc1nn(-c2cc(Cl)c(Oc3cc(Cc4ccc(O)cc4)c(=O)[nH]n3)c(Cl)c2)c(=O)[nH]c1=O [Compound 33]
c. CC(C)c1c[nH]c2ccc(Oc3c(Cl)cc(-n4nc(C#N)c(=O)[nH]c4=O)cc3Cl)cc12 [Compound 56]
Request: Order them by EC50, ascending: the molecules above. Dear reader, please state the labels in the requested order.
Response: c, a, b
